Target: Carnitine O-palmitoyltransferase 1, liver isoform (Homo sapiens, UniProt P50416)
Sequence (P50416 whole entry, canonical isoform): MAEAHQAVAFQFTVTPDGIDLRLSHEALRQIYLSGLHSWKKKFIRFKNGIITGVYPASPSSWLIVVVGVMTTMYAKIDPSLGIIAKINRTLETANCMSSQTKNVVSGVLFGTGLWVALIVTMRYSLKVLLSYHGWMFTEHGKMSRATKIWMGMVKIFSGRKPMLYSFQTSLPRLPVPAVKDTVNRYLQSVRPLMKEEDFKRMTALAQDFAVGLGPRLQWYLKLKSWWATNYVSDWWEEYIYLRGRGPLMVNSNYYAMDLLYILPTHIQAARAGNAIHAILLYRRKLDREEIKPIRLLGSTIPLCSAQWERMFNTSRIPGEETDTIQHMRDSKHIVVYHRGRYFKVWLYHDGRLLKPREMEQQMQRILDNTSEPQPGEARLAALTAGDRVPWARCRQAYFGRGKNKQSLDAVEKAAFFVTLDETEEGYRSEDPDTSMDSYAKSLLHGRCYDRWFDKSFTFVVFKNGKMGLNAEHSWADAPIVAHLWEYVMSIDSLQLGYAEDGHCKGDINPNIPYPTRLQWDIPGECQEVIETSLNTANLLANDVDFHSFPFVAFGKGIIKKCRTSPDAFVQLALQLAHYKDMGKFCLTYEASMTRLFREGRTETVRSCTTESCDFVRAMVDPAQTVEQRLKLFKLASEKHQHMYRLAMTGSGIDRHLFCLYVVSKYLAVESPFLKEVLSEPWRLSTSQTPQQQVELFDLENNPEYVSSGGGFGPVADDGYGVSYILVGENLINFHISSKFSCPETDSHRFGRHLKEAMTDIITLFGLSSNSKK
Test: SUPPLEMENTARY: Inhibition of Carnitine palmitoyltransferase 1, liver isoform
Please respond with reported pIC50 for every item in the list.
Hey, just a heads up that pIC50 is the negative log base 10 of the concentration in molar.

Request: Look up and state reported pIC50 for COc1ccc(Cl)cc1S(=O)(=O)N1COc2c(Cl)cc(C(=O)Nc3ccc(C(=O)O)cc3)cc21
Result: 7.36

Request: Look up and state reported pIC50 for O=C1Cc2ccc(-c3noc([C@H]4CCCCN4C(=O)COc4ccccc4)n3)cc2N1
Result: 7.02

Request: Look up and state reported pIC50 for COc1ccc(Cl)cc1S(=O)(=O)N1CCOc2c(F)cc(C(=O)Nc3nc(CC(=O)O)cs3)cc21
Result: 7.62

Request: Look up and state reported pIC50 for O=C1NCc2ccc(-c3n[nH]c([C@H]4CCCCN4C(=O)COc4ccccc4)n3)cc2N1
Result: 6.72

Request: Look up and state reported pIC50 for O=C([C@H]1CCCCN1C(=O)COc1ccccc1)N1Cc2ccc(OC3CCOCC3)cc2C1
Result: 6.99

Request: Look up and state reported pIC50 for CCNC(=O)Nc1cccc(-c2n[nH]c([C@H]3CCCCN3C(=O)COc3ccccc3)n2)c1
Result: 7.28

Request: Look up and state reported pIC50 for NS(=O)(=O)c1ccc(-c2noc(C3C4CC4CN3C(=O)COc3ccccc3)n2)cc1 (configuration not stated)
Result: 6.96

Request: Look up and state reported pIC50 for O=C1CN(NC(=O)c2cccc(-c3n[nH]c([C@H]4CCCCN4C(=O)COc4ccccc4)n3)c2)C(=O)N1
Result: 6.56

Request: Look up and state reported pIC50 for COc1ccc(Cl)cc1S(=O)(=O)N(C)c1cc(C(=O)Nc2ccc(C(=O)O)cc2)cc2c1OCCO2
Result: 6.66

Request: Look up and state reported pIC50 for NNC(=O)c1cccc(-c2n[nH]c([C@H]3CCCCN3C(=O)COc3ccccc3)n2)c1
Result: 6.58

Request: Look up and state reported pIC50 for O=C([C@H]1CCCCN1C(=O)COc1ccccc1)N1Cc2ccc(O[C@@H]3CCOC3)cc2C1
Result: 7.20

Request: Look up and state reported pIC50 for O=C(COc1ccccc1)N1CCCC[C@@H]1c1nnn(-c2ccc3[nH]ccc3c2)n1
Result: 6.88

Request: Look up and state reported pIC50 for CCCN(c1cc(C(=O)Nc2ncc(CC(=O)O)s2)cc2c1OCO2)S(=O)(=O)c1cc(Cl)ccc1OC
Result: 6.74

Request: Look up and state reported pIC50 for Nc1ccc(-c2n[nH]c([C@H]3CCCCN3C(=O)COc3ccccc3)n2)cn1
Result: 6.49

Request: Look up and state reported pIC50 for COc1ccc(Cl)cc1S(=O)(=O)N1CCOc2ncc(C(=O)Nc3ccc(C(=O)O)cc3)cc21
Result: 6.48

Request: Look up and state reported pIC50 for O=C(COc1ccccc1)N1CCCC[C@@H]1c1nc(-c2ccccc2F)n[nH]1
Result: 6.98

Request: Look up and state reported pIC50 for COc1ccc(Cl)cc1S(=O)(=O)N1COc2ccc(C(=O)Nc3ccn(CC(=O)O)n3)cc21
Result: 6.87

Request: Look up and state reported pIC50 for COc1ccc(Cl)cc1S(=O)(=O)N1CCc2ccc(C(=O)Nc3ccn(CC(=O)O)n3)cc21
Result: 7.07

Request: Look up and state reported pIC50 for O=C(COc1ccccc1)N1CCCC[C@@H]1c1noc(C2C[C@@H]3CC[C@H]2C3)n1 (some centres not stated)
Result: 7.49

Request: Look up and state reported pIC50 for O=C(COc1ccccc1)N1CCCC[C@@H]1c1noc(-c2cc(Cl)nnc2O)n1
Result: 6.92

Request: Look up and state reported pIC50 for O=C(NCCO)c1cccc(-c2n[nH]c([C@H]3CCCCN3C(=O)COc3ccccc3)n2)c1
Result: 6.62

Request: Look up and state reported pIC50 for CCN(CC)C(=O)c1nc([C@H]2CCCCN2C(=O)COc2ccccc2)no1
Result: 6.55

Request: Look up and state reported pIC50 for O=C(COc1ccccc1)N1CCCCC1c1ncc(-c2cccc([N+](=O)[O-])c2)o1 (configuration not stated)
Result: 6.61

Request: Look up and state reported pIC50 for N#Cc1cccc(-c2nc([C@H]3CCCCN3C(=O)COc3ccccc3)no2)c1
Result: 7.07

Request: Look up and state reported pIC50 for NC(=O)c1cncc(-c2noc([C@H]3COCCN3C(=O)COc3ccccc3)n2)c1
Result: 6.77

Request: Look up and state reported pIC50 for COc1ccc(C)cc1S(=O)(=O)N1CCCc2ccc(C(=O)Nc3ccc(C(=O)O)c(F)c3)cc21
Result: 6.82

Request: Look up and state reported pIC50 for Cc1cc(C)cc(S(=O)(=O)c2nn(C)c3ccc(C(=O)Nc4ccc(C(=O)O)cc4)cc23)c1
Result: 7.13

Request: Look up and state reported pIC50 for CC(=O)Nc1cccc(-n2nnc([C@H]3CCCCN3C(=O)COc3ccccc3)n2)c1
Result: 6.96

Request: Look up and state reported pIC50 for O=C(COc1ccccc1)N1CCOC[C@@H]1c1nc(-c2ccc3[nH]cnc3c2)no1
Result: 7.05

Request: Look up and state reported pIC50 for COc1ccc(Cl)cc1S(=O)(=O)N1CCCc2ccc(C(=O)Nc3ccc(C(=O)O)c(F)c3)cc21
Result: 7.42

Request: Look up and state reported pIC50 for COc1ccc(Cl)cc1S(=O)(=O)c1cn(CCO)c2ccc(C(=O)Nc3ccccc3)cc12
Result: 7.36

Request: Look up and state reported pIC50 for COc1ccc(Cl)cc1S(=O)(=O)N1CCOc2c1cc(C(=O)Nc1ccc(C(=O)O)cc1)cc2C(F)(F)F
Result: 7.11

Request: Look up and state reported pIC50 for Cc1cc(C(=O)Nc2ccc(-c3nnn[nH]3)cc2)nn1Cc1ccc(OC(F)F)cc1
Result: 6.72

Request: Look up and state reported pIC50 for NC(=O)c1cccc(-c2noc([C@H]3CCCCN3C(=O)COc3ccccc3)n2)c1
Result: 7.39

Request: Look up and state reported pIC50 for COc1ccc(Cl)cc1S(=O)(=O)N1COc2ccc(C(=O)Nc3ccc(C(=O)O)c(Cl)c3)cc21
Result: 6.68

Request: Look up and state reported pIC50 for COc1ccc(Cl)cc1S(=O)(=O)N1CCc2ccc(C(=O)Nc3ccc(CC(=O)O)cc3)cc21
Result: 7.01

Request: Look up and state reported pIC50 for CC(=O)Nc1ccc(F)c(-c2n[nH]c([C@H]3CCCCN3C(=O)COc3ccccc3)n2)c1
Result: 6.48

Origin of values: ChEMBL document CHEMBL3431459
